meta.source: ChEMBL document CHEMBL4725422

Kindly supply the reported pIC50 values for the records listed here.
Tgt: Epidermal growth factor receptor (Homo sapiens)
Sequence (P00533 whole entry): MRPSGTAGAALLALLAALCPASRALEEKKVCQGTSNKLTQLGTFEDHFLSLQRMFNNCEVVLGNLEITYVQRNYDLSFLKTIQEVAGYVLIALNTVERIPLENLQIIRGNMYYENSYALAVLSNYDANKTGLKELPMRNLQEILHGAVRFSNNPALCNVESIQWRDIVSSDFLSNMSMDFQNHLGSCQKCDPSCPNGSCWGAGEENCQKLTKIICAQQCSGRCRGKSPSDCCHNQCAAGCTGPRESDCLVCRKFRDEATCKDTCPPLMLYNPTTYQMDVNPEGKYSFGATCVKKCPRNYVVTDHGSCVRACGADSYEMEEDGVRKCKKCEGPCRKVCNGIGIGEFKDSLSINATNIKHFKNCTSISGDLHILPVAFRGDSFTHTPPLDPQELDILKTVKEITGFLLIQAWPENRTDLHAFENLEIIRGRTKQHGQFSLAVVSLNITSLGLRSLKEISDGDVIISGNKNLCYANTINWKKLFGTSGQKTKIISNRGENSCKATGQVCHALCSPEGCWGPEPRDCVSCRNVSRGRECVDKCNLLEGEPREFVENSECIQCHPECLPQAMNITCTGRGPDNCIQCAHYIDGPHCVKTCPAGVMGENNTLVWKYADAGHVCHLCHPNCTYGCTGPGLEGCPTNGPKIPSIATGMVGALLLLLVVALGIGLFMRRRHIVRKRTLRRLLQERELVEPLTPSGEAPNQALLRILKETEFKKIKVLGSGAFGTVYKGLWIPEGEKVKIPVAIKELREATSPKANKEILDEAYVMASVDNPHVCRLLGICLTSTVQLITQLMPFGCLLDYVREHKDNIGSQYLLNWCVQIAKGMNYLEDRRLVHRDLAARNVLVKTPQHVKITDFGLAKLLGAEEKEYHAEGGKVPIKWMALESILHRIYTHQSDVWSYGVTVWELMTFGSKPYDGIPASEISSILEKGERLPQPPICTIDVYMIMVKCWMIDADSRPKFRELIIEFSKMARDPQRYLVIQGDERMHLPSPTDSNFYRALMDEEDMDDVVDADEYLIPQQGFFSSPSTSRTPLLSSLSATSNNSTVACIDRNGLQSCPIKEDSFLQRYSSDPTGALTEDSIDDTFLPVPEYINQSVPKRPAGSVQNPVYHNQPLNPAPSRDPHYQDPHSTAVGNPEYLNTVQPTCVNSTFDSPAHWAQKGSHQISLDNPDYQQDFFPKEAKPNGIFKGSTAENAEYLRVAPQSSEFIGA
Assay Details: Inhibition of wild type EGFR in human U87 cells assessed as heparin/human EGF stimulated phosphorylation after 1 hr by immunoblotting analysis
Type: cell-based
Remember, pIC50 is on a log scale: it is -log10 of the molar concentration.

For reference, reported pIC50 for Fc1c(Nc2ncnc3cc4c(cc23)OCCO4)ccc(Br)c1Br stands at 7.49

For reference, reported pIC50 for Clc1cccc(Nc2ncnc3cc4c(cc23)OCCO4)c1 stands at 8.06

For reference, reported pIC50 for Brc1cccc(Nc2ncnc3cc4c(cc23)OCCO4)c1 stands at 7.81

For reference, reported pIC50 for Oc1c(Br)cccc1Nc1ncnc2cc3c(cc12)OCCO3 stands at 6.14

For reference, reported pIC50 for Fc1c(Br)cc(Cl)cc1Nc1ncnc2cc3c(cc12)OCCO3 stands at 5.66

For reference, reported pIC50 for Fc1ccc(Br)cc1Nc1ncnc2cc3c(cc12)OCCO3 stands at 7.95

====

Assay Details: Drug exposure in mouse brain at 80 mg/kg, po after 24 hrs
Assay type: ADME, organism-based
Parameters: route oral, dose 80 mg/kg, time 24 hrs
Measured Quantity: AUC at 24 h

For reference, reported AUC at 24 h for CS(=O)(=O)CCNCc1ccc(-c2ccc3ncnc(Nc4ccc(OCc5cccc(F)c5)c(Cl)c4)c3c2)o1 stands at 1.11 µM·h

====

Assay Details: Apparent permeability in human Caco2 cells
Type: ADME, cell-based
Assay Context: Caco-2
Measured Quantity: Papp (×10⁻⁶ cm/s)
// note: answer is a bare numeric in ×10⁻⁶ cm/s

For reference, reported Papp for C#Cc1cccc(Nc2ncnc3cc(OCCOC)c(OCCOC)cc23)c1 [ERLOTINIB] stands at 34

====

Assay Details: Drug exposure in mouse brain at 300 mg/kg, po after 24 hrs
Assay type: ADME, organism-based
Design: route oral, time 24 hrs, dose 300 mg/kg
Measured Quantity: AUC at 24 h (µM·h)
// note: answer is a bare numeric in µM·h

For reference, reported AUC at 24 h for Fc1c(Br)cccc1Nc1ncnc2cc3c(cc12)OCCO3 stands at 39.3

====

Kindly supply the reported AUC(0-t) values for the records listed here.
Assay Details: AUC (0 to 7 hrs) in CD-1 mouse plasma at 10 mg/kg, po administered via gavage by LC-MS/MS analysis
Format: ADME, organism-based
Design: route oral, dose 10 mg/kg, time <=7
// note: answer is a bare numeric in µM·h

For reference, reported AUC(0-t) for Fc1c(Cl)cccc1Nc1ncnc2cc3c(cc12)OCCO3 stands at 0.378

For reference, reported AUC(0-t) for Fc1cccc(Nc2ncnc3cc4c(cc23)OCCO4)c1F stands at 0.324

For reference, reported AUC(0-t) for C#Cc1cccc(Nc2ncnc3cc4c(cc23)OCCO4)c1F stands at 0.553

For reference, reported AUC(0-t) for Fc1c(I)cccc1Nc1ncnc2cc3c(cc12)OCCO3 stands at 0.752

For reference, reported AUC(0-t) for Fc1c(Br)cccc1Nc1ncnc2cc3c(cc12)OCCO3 stands at 0.221

For reference, reported AUC(0-t) for C#Cc1cccc(Nc2ncnc3cc4c(cc23)OCCO4)c1 stands at 0.199
